Value source: the RepoRT retention time repository (doi:10.1016/j.jhazmat.2019.121712)

# MEASUREMENT DESCRIPTION: Thermo Scientific Acclaim RSLC 120 C18, 100 × 2.1 mm, 2.2 µm, 30 °C; A: 90% water + 10% methanol + 0.01% formic acid + 5 mM ammonium formate; B: methanol + 0.01% formic acid + 5 mM ammonium formate; gradient (min/%B) 0.1/1 3/39 14/99.9 16/99.9
# CONDITION SET: stereoisomer not certain

| COMPOUND | LC retention time, min |
| --- | --- |
| COc1ccc(CNC(=O)c2cc([N+](=O)[O-])ccc2NC(C)CO)cc1OC (stereo not drawn) | 7.8 |
| CNCCCC(C#N)(c1ccc(OC)c(OC)c1)C(C)C (stereo not drawn) | 6.14 |
| CC12CCC3c4ccc(O)cc4CCC3C1CCC2=O (stereo not drawn) | 9.56 |
| NC(=O)N1c2ccccc2CC(O)c2ccccc21 (stereo not drawn) | 5.94 |
| COc1ccc2c3c1OC1C(O)C=CC4C(C2)NCCC341 (stereo not drawn) | 3.5 |
| CCNc1nc(NC(C)C)nc(OC)n1 | 7.81 |
| COCC(C)N(C(=O)C(=O)O)c1c(C)csc1C (stereo not drawn) | 6.36 |
| OCC(O)CN1CCN(c2ccccc2)CC1 (stereo not drawn) | 3.79 |
